# key: entry, value: IC50
Target: Prostaglandin G/H synthase 2 (Homo sapiens, UniProt P35354)
Sequence (P35354 whole entry): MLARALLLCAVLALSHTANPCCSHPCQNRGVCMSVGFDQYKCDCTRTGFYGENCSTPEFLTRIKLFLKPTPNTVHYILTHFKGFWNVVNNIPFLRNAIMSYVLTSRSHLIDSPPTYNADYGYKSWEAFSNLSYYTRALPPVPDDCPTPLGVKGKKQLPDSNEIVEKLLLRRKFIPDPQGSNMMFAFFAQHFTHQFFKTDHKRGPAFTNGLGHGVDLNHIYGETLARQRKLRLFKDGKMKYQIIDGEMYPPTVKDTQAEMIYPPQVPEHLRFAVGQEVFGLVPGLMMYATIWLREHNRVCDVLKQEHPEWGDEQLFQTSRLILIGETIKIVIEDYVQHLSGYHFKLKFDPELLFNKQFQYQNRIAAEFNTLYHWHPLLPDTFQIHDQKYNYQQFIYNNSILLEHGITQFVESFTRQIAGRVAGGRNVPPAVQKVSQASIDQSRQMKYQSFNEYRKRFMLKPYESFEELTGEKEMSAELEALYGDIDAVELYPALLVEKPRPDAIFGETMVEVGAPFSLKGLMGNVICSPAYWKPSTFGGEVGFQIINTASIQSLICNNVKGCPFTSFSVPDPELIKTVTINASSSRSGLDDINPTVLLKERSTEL
Experiment: Inhibition of human recombinant COX2 using […] as substrate after 10 mins by EIA

Example compounds with recorded IC50:
INSERT INTO measurements (compound_string, result) VALUES
  ('Cc1c(CC(=O)NC(C)C)cc(-c2ccc(S(C)(=O)=O)cc2)n1-c1cccc(F)c1', '7 µM'),
  ('CCCNC(=O)Cc1cc(-c2ccc(S(N)(=O)=O)cc2)n(-c2cccc(F)c2)c1C', '5.78 µM'),
  ('Cc1c(CC(=O)NC(C)C)cc(-c2ccc(S(C)(=O)=O)cc2)n1-c1ccc(F)cc1', '4.91 µM'),
  ('CCOC(=O)Cc1cc(-c2ccc(S(N)(=O)=O)cc2)n(-c2ccc(F)cc2)c1C', '1.07 µM');

Now for a further compound.
[in] Returns the measured IC50 for the input compound. Input: CCOC(=O)Cc1cc(-c2ccc(S(N)(=O)=O)cc2)n(-c2cccc(F)c2)c1C
[out] 0.92 µM
